Recorded LogP[b] for the following compounds
Assay: log P by reversed-phase HPLC analogously to OECD Guideline 117
Type: physicochemical
Details: [b] neutral range, pH 7.8, ammonium hydrogencarbonate/acetonitrile
Procedure: The log P values were determined analogously to OECD Guideline 117 (EC Directive 92/69/EEC) by HPLC (high-performance liquid chromatography) using reversed-phase columns (C 18), by the following methods: [a] […] Calibration is effected with solutions of a homologous series of unbranched alkan-2-ones (having 3 to 16 carbon atoms) with known log P values (log P values determined on the basis of the retention times by linear interpolation between two successive alkanones).
Format: numeric value only, no unit, no commentary.

Exercise: Quick one: LogP[b] of "C#CCn1c(=O)ccn(-c2cc(SCC(F)(F)F)c(C)cc2F)c1=O" ?
Solution: 2.81

Exercise: Try this compound next: Cc1cc(F)c(-n2ncc(=O)n(Cc3ccc[n+]([O-])c3)c2=O)cc1[S+]([O-])CC(F)(F)F (racemic)
Solution: 1.45

Exercise: One more compound: "CCCn1c(=O)ccn(-c2cc(SCC(F)(F)F)c(C)cc2F)c1=O"
Solution: 3.27

Exercise: Queued: Cc1cc(F)c(-n2ncc(=O)n(C)c2=O)cc1[S+]([O-])CC(F)(F)F (single isomer, unassigned; (+))
Solution: 1.9

---

Assay: log P by reversed-phase HPLC analogously to OECD Guideline 117
Format: physicochemical
Details: [a] acidic range, pH 2.7, formic acid (or trifluoroacetic acid)/acetonitrile
// values below are reported LogP[a]
Answer using only a numeral; do not append any unit.

Sample records with LogP[a]:
MOLECULE: CCn1c(=O)ccn(-c2ccc(C)c([S+]([O-])CC(F)(F)F)c2)c1=O (centres unmarked)
LogP[a]: 1.77
--
MOLECULE: Cn1c(=O)cnn(-c2ccc(Cl)c(SCC(F)(F)F)c2)c1=O [compound 32]
LogP[a]: 2.18
--
MOLECULE: Cc1cc(F)c(-n2ncc(=O)n(C)c2=O)cc1[S+]([O-])CC(F)(F)F (single isomer, unassigned; (+))
LogP[a]: 1.95

Exercise: // query LogP[a] value for entry "CCn1c(=O)ccn(-c2ccc(C)c(SCC(F)(F)F)c2)c1=O"
Solution: 2.74

Exercise: Next up: "Cc1cc(F)c(-n2ccc(=O)n(CC(C)C)c2=O)cc1SCC(F)(F)F"
Solution: 3.56

---

Measured LogP[a] values are reported for all entries that follow.
Assay: log P by reversed-phase HPLC analogously to OECD Guideline 117
Assay type: physicochemical
Details: [a] acidic range, pH 2.7, formic acid (or trifluoroacetic acid)/acetonitrile
Write the number on its own, no unit after it.

COMPOUND: Cc1cc(C)c(-n2ncc(=O)n(CC3CC3)c2=O)cc1SCC(F)(F)F
LogP[a]: 3.94

Exercise: Entry Cc1cc(F)c(-n2ncc(=O)n(Cc3cccnc3)c2=O)cc1[S+]([O-])CC(F)(F)F (racemic) : reported LogP[a] = ?
Solution: 1.47

Exercise: Let us now turn to "Cc1cc(C)c(-n2ncc(=O)n(CC(C)C)c2=O)cc1SCC(F)(F)F"
Solution: 4.18

---

Test system: southern root-knot nematode (Meloidogyne incognita)
Assay: Meloidogyne incognita test (sand, lettuce, acetone solvent, 14 days)
Format: in vivo
Settings: application rate 20 ppm, after 14 days
REPORTED_PROPERTY: nematicidal efficacy (formation of galls) (%)
Field format: number, assumed %, no unit text.

COMPOUND: Cc1ccc(-n2ccc(=O)n(C(C)C)c2=O)cc1SCC(F)(F)F [compound 87]
ASSAY_RESULT: 90
--
COMPOUND: Cc1cc(F)c(-n2ccc(=O)n(CC#N)c2=O)cc1SCC(F)(F)F [compound 73]
ASSAY_RESULT: 100
--
COMPOUND: O=c1cnn(-c2cc([S+]([O-])CC(F)(F)F)c(Cl)cc2Cl)c(=O)[nH]1 (racemic) [compound 15]
ASSAY_RESULT: 90
--
COMPOUND: Cc1cc(F)c(-n2ncc(=O)n(CC(C)C)c2=O)cc1[S+]([O-])CC(F)(F)F (racemic) [compound 22]
ASSAY_RESULT: 90

Exercise: Dear colleague, I am looking for the recorded nematicidal efficacy (formation of galls) of the following compound: Cc1cc(F)c(-n2ccc(=O)n(Cc3ccc(F)cc3)c2=O)cc1[S+]([O-])CC(F)(F)F (racemic) [compound 64]
Solution: 100

Exercise: Same for COCn1c(=O)ccn(-c2cc(SCC(F)(F)F)c(C)cc2F)c1=O [compound 80]
Solution: 100

Exercise: Then what about the compound Cc1cc(C)c(-n2ccc(=O)n(C)c2=O)cc1SCC(F)(F)F [compound 92] ?
Solution: 90

Exercise: Same question for Cc1ccc(-n2ccc(=O)n(CC3CC3)c2=O)cc1SCC(F)(F)F [compound 86] please.
Solution: 90
